- TESTED_ON: DAT (Rattus norvegicus)
- Construct: 100 μl of tissue preparation (1.5 mg of brain striatum membranes per well); tissue Bioreclamation IVT (Hicksville, N.Y.); host or cells: male Sprague-Dawley rat brain striatum membranes
- METHOD_DESCRIPTION: DAT radioligand binding in rat striatum ([3H]-WIN35,428 competition)
- ASSAY_CONDITIONS: rat striatum membranes, [3H]-WIN35,428, mean ± SEM; read-out: DAT (rat striatum) Ki ± SEM
pKi: −log10 of the molar value.
Binary call on pKi: MET from 7 upward, NOT MET beneath that.

CC(C)(C)C(=O)N1CCC(NCC[S+]([O-])C(c2ccc(F)cc2)c2ccc(F)cc2)CC1 (centres unmarked): NOT MET
Cl.Cl.Fc1ccc(CN2CCC(NCCSC(c3ccc(F)cc3)c3ccc(F)cc3)CC2)cc1: MET
Fc1ccc(C(SCCNC2CCN(CC3CC3)CC2)c2ccc(F)cc2)cc1: NOT MET

query: For this compound, is measured pKi 7 or higher? Fc1ccc(C(SCCNC2CCN(Cc3ccccc3)CC2)c2ccc(F)cc2)cc1
result: MET

query: Further, for Cl.Cl.Fc1ccc(C(SCCNC2CCN(Cc3cc4ccccc4[nH]3)CC2)c2ccc(F)cc2)cc1 ?
result: NOT MET

query: Further, for Cl.Cl.Fc1ccc(C(SCCNC2CCN(Cc3ccc(C(F)(F)F)cc3)CC2)c2ccc(F)cc2)cc1 ?
result: NOT MET

====

- TESTED_ON: DAT (Rattus norvegicus)
- Construct: 100 μl of tissue preparation (1.5 mg of brain striatum membranes per well); tissue Bioreclamation IVT (Hicksville, N.Y.); host or cells: male Sprague-Dawley rat brain striatum membranes
- METHOD_DESCRIPTION: DAT radioligand binding in rat striatum ([3H]-WIN35,428 competition)
- ASSAY_CONDITIONS: rat striatum membranes, [3H]-WIN35,428, mean ± SEM; read-out: DAT (rat striatum) Ki ± SEM
pKi: −log10 of the molar value.
Binary call on pKi: true from 7 upward, false beneath that.

Cl.Cl.Fc1ccc(C(SCCNC2CCN(CCc3ccccc3)CC2)c2ccc(F)cc2)cc1: true
CC(O)CN1CCC2(CCN(CC[S+]([O-])C(c3ccc(F)cc3)c3ccc(F)cc3)CC2)C1 (centres unmarked): false
Cl.Cl.OC(CNC1CCN(CCSC(c2ccc(F)cc2)c2ccc(F)cc2)CC1)Cc1ccccc1 (centres unmarked): true
O=C(C1CC1)N1CCC(NCCSC(c2ccc(F)cc2)c2ccc(F)cc2)CC1: false
C[C@@H]1CN(CCSC(c2ccc(F)cc2)c2ccc(F)cc2)C[C@H](C)N1CC(O)Cc1ccccc1 (some centres unmarked): true
CC(C)(C)CN1CCC(NCC[S+]([O-])C(c2ccc(F)cc2)c2ccc(F)cc2)CC1 (centres unmarked): false

Please find the next molecule below.
query: For this molecule, is measured pKi 7 or higher? C[C@@H]1CN(CC[S+]([O-])C(c2ccc(F)cc2)c2ccc(F)cc2)C[C@H](C)N1CC(O)Cc1ccccc1 (some centres unmarked)
result: true

====

- METHOD_DESCRIPTION: Phase I metabolic stability in rat liver microsomes
- Format: in vitro ADME
- ASSAY_CONDITIONS: 60 min; with NADPH; 10 μM compound; 0.5 mg/mL microsomes
MEASURED_PARAMETER: Phase I in Liver Microsomes, Rat (%)
Field format: number, assumed %, no unit text.

Some solved entries appear below for comparison.
C[C@@H]1CN(CC[S+]([O-])C(c2ccc(F)cc2)c2ccc(F)cc2)C[C@H](C)N1CC(O)Cc1ccccc1 (stereo partly shown) [RDS04-011]: 26
Cl.Cl.[O-][S+](CCNC1CCN(Cc2ccc(F)cc2)CC1)C(c1ccc(F)cc1)c1ccc(F)cc1 (stereo not shown) [JBG02-054]: 95
CC(O)CN1[C@H](C)CN(CCSC(c2ccc(F)cc2)c2ccc(F)cc2)C[C@@H]1C (stereo partly shown) [RDS03-094]: 68
[O-][S+](CCNC1CCN(CC(O)Cc2ccccc2)CC1)C(c1ccc(F)cc1)c1ccc(F)cc1 (stereo not shown) [JBG02-057]: 22
Cl.O=C(c1ccc(F)cc1)N1CCC(NCC[S+]([O-])C(c2ccc(F)cc2)c2ccc(F)cc2)CC1 (stereo not shown) [JBG02-056]: 79
C[C@@H]1CN(CCSC(c2ccc(F)cc2)c2ccc(F)cc2)C[C@H](C)N1CC(O)Cc1ccccc1 (stereo partly shown) [RDS03-095]: 10

Field: next molecule
query: Query (molecule): Cl.Cl.Fc1ccc(CN2CCC(NCCSC(c3ccc(F)cc3)c3ccc(F)cc3)CC2)cc1 [JBG01-077] ; field requested: Phase I in Liver Microsomes, Rat
result: 70

====

- TESTED_ON: σ1R (Cavia porcellus, UniProt Q60492)
- Construct: tissue BioReclamation IVT (Hicksville, N.Y.); host or cells: male Hartley guinea pig brain cortex membranes
- Sequence (Q60492 whole entry): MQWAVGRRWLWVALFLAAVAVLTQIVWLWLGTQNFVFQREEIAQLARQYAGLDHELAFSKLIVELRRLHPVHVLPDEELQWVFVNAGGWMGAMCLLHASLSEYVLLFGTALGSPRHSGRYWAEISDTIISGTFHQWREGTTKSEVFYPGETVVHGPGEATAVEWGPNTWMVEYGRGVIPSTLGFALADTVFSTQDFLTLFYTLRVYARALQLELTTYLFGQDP
- METHOD_DESCRIPTION: σ1R radioligand binding in guinea pig cortex ([3H]-(+)-Pentazocine competition)
- ASSAY_CONDITIONS: ratio of σ1 to SERT affinity values
MEASURED_PARAMETER: σ1/SERT

Some solved entries appear below for comparison.
CC(O)CN1[C@H](C)CN(CC[S+]([O-])C(c2ccc(F)cc2)c2ccc(F)cc2)C[C@@H]1C (stereo partly drawn) [RDS04-010]: 0.017
C[C@@H]1CN(CC[S+]([O-])C(c2ccc(F)cc2)c2ccc(F)cc2)C[C@H](C)N1CC(O)Cc1ccccc1 (stereo partly drawn) [RDS04-011]: 0.029

Field: next molecule
query: Query (molecule): Cl.Cl.[O-][S+](CCNC1CCN(Cc2ccc(F)cc2)CC1)C(c1ccc(F)cc1)c1ccc(F)cc1 (stereo not drawn) [JBG02-054] ; field requested: σ1/SERT
result: 0.072

====

Catalogue of Phase I in Liver Microsomes, Rat readings, one per entry.
- METHOD_DESCRIPTION: Phase I metabolic stability in rat liver microsomes
- Type: in vitro ADME
- ASSAY_CONDITIONS: 60 min; with NADPH; 10 μM compound; 0.5 mg/mL microsomes
Field format: number, assumed %, no unit text.

Some solved entries appear below for comparison.
CC(O)CN1[C@H](C)CN(CC[S+]([O-])C(c2ccc(F)cc2)c2ccc(F)cc2)C[C@@H]1C (stereo partly drawn): 95
Cl.O=C(c1ccccc1)N1CCC(NCCSC(c2ccc(F)cc2)c2ccc(F)cc2)CC1: 7
Cl.Cl.OC(Cc1ccccc1)CN1CCC(NCCSC(c2ccc(F)cc2)c2ccc(F)cc2)CC1 (stereo not drawn): 74

query: Query (molecule): O=C(c1ccc(F)cc1)N1CCC(NCCSC(c2ccc(F)cc2)c2ccc(F)cc2)CC1 ; field requested: Phase I in Liver Microsomes, Rat
result: 24

query: Further, for Cl.Cl.OC(CNC1CCN(CCSC(c2ccc(F)cc2)c2ccc(F)cc2)CC1)Cc1ccccc1 (stereo not drawn) ?
result: 69

query: Further, for OC(CN1CCC2(CCN(CCSC(c3ccc(F)cc3)c3ccc(F)cc3)CC2)C1)c1ccccc1 (stereo not drawn) ?
result: 100

====

- TESTED_ON: DAT (Rattus norvegicus, UniProt P23977)
- Construct: 100 μl of tissue preparation (1.5 mg of brain striatum membranes per well); tissue Bioreclamation IVT (Hicksville, N.Y.); host or cells: male Sprague-Dawley rat brain striatum membranes
- Sequence (P23977 whole entry): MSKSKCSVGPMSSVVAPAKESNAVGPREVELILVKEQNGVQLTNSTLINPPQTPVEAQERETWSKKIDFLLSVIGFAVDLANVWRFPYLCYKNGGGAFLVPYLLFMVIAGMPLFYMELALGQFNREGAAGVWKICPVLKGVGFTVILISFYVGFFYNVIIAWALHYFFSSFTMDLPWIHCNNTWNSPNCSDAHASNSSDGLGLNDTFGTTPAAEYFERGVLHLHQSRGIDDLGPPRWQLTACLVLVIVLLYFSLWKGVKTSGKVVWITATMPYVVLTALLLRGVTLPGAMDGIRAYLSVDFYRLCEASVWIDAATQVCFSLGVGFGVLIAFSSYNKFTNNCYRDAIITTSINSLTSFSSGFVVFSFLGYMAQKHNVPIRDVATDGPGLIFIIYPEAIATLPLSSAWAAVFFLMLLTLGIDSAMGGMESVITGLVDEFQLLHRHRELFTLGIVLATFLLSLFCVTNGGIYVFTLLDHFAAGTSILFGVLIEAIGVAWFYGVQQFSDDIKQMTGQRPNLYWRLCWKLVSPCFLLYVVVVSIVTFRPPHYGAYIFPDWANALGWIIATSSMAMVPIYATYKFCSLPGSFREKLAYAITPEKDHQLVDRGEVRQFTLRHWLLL
- METHOD_DESCRIPTION: DAT radioligand binding in rat striatum ([3H]-WIN35,428 competition)
- Procedure: Binding affinities of the analogue compounds were evaluated at the DAT and SERT in rat brain membranes, and sigma-1 in guinea pig brain membranes according to the following protocols. DAT Radioligand Binding in Rat Striatum The tissue was centrifuged at 20,000 rpm for 10 min at 4° C. The pellet was suspended in cold buffer and centrifuged again using the same settings. […] Non-specific binding was determined using […] Indatraline and total binding was determined with 30% DMSO vehicle. […]
MEASURED_PARAMETER: pKi
# reply with the number alone; pKi is -log10 of concentration in mol/L

Some solved entries appear below for comparison.
O=C(c1ccc(F)cc1)N1CCC(NCCSC(c2ccc(F)cc2)c2ccc(F)cc2)CC1 [JBG02-028]: 8.14
Cl.Cl.OC(Cc1ccccc1)CN(CC(O)Cc1ccccc1)C1CCN(CCSC(c2ccc(F)cc2)c2ccc(F)cc2)CC1 (stereo not shown) [JBG01-056]: 6.73
CC(O)CN1[C@H](C)CN(CCSC(c2ccc(F)cc2)c2ccc(F)cc2)C[C@@H]1C (stereo partly shown) [RDS03-094]: 7.63

Field: next molecule
query: Query (molecule): Cl.Cl.O.O=C(c1cc2ccccc2[nH]1)N1CCC(NCCSC(c2ccc(F)cc2)c2ccc(F)cc2)CC1 [JBG02-029] ; field requested: pKi
result: 6.74

====

- TESTED_ON: DAT (Rattus norvegicus, UniProt P23977)
- Construct: 100 μl of tissue preparation (1.5 mg of brain striatum membranes per well); tissue Bioreclamation IVT (Hicksville, N.Y.); host or cells: male Sprague-Dawley rat brain striatum membranes
- METHOD_DESCRIPTION: DAT radioligand binding in rat striatum ([3H]-WIN35,428 competition)
- ASSAY_CONDITIONS: rat striatum membranes, [3H]-WIN35,428, mean ± SEM; read-out: DAT (rat striatum) Ki ± SEM
We label by threshold. Values of Ki strictly beneath 100 nM are Criterion met. Values of 100 nM and up are Criterion not met.

Examples with answers:
Cl.Cl.Fc1ccc(C(SCCNC2CCN(Cc3ccc(Cl)cc3)CC2)c2ccc(F)cc2)cc1: Criterion met
CC(O)CN1[C@H](C)CN(CC[S+]([O-])C(c2ccc(F)cc2)c2ccc(F)cc2)C[C@@H]1C (some centres unmarked): Criterion not met
Cl.Cl.Fc1ccc(C(SCCN2CCC(NCc3ccc(C(F)(F)F)cc3)CC2)c2ccc(F)cc2)cc1: Criterion not met
Fc1ccc(C(SCCN2CCC(NCc3ccccc3)CC2)c2ccc(F)cc2)cc1: Criterion not met
CC(C)(C)CN1CCC(NCCSC(c2ccc(F)cc2)c2ccc(F)cc2)CC1: Criterion not met
CC(C)(C)C(=O)N1CCC(NCCSC(c2ccc(F)cc2)c2ccc(F)cc2)CC1.Cl: Criterion not met
Cl.Cl.Fc1ccc(CNC2CCN(CCSC(c3ccc(F)cc3)c3ccc(F)cc3)CC2)cc1: Criterion met

Please find the next compound below.
query: Consider the compound O=C(c1cc2ccccc2o1)N1CCC(NCCSC(c2ccc(F)cc2)c2ccc(F)cc2)CC1 . Is its Ki strictly less than 100 nM?
result: Criterion not met

// provenance: patent US11365195B2
